assayTarget: RecQ-WH (Escherichia coli, UniProt P15043)
Construct: coding for residues 408– 523 of E. coli RecQ; made in house; host or cells: E. coli BL21(DE3)
Sequence (P15043 408-523): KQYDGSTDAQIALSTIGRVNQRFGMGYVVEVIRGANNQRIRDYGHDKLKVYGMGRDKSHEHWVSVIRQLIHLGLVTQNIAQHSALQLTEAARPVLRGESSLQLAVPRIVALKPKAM
experimentalDetails: Pull-down assay with immobilized protein and LSM libraries
Set-up: species or system E. coli
conditionDescription: H14 library; 1:1 binding assumed; read-out: Surface mapping KD (apparent)
pKd: −log10 of the molar value.
measuredProperty: pKd

chemicalsmiles=C[C@@H](CC(=O)N[C@H]1CCCC[C@@H]1C(N)=O)NC(=O)[C@H]1CCCC[C@@H]1NC(=O)[C@H]1CCCC[C@@H]1NC(=O)C[C@H](Cc1ccccc1)NC(=O)[C@H]1CCCC[C@@H]1N recordedmeasurement=3.55
chemicalsmiles=CC(C)[C@@H](CC(=O)N[C@H]1CCCC[C@@H]1C(=O)N[C@H]1CCCC[C@@H]1C(=O)N[C@H](CC(=O)N[C@H]1CCCC[C@@H]1C(N)=O)Cc1ccccc1)NC(=O)[C@H]1CCCC[C@@H]1N recordedmeasurement=3.46
chemicalsmiles=CC[C@H](C)[C@@H](CC(=O)N[C@H]1CCCC[C@@H]1C(N)=O)NC(=O)[C@H]1CCCC[C@@H]1NC(=O)[C@H]1CCCC[C@@H]1NC(=O)C[C@H](CC(=O)O)NC(=O)[C@H]1CCCC[C@@H]1N recordedmeasurement=3.37
chemicalsmiles=N=C(N)NCCC[C@@H](CC(=O)N[C@H]1CCCC[C@@H]1C(=O)N[C@H]1CCCC[C@@H]1C(=O)N[C@@H](CC(N)=O)CC(=O)N[C@H]1CCCC[C@@H]1C(N)=O)NC(=O)[C@H]1CCCC[C@@H]1N recordedmeasurement=3.36
chemicalsmiles=CC[C@H](C)[C@@H](CC(=O)N[C@H]1CCCC[C@@H]1C(=O)N[C@H]1CCCC[C@@H]1C(=O)N[C@H](CC(=O)N[C@H]1CCCC[C@@H]1C(N)=O)CC(C)C)NC(=O)[C@H]1CCCC[C@@H]1N recordedmeasurement=3.69
chemicalsmiles=CC(C)C[C@@H](CC(=O)N[C@H]1CCCC[C@@H]1C(=O)N[C@H]1CCCC[C@@H]1C(=O)N[C@H](CC(=O)N[C@H]1CCCC[C@@H]1C(N)=O)Cc1c[nH]c2ccccc12)NC(=O)[C@H]1CCCC[C@@H]1N recordedmeasurement=3.71
chemicalsmiles=C[C@@H](CC(=O)N[C@H]1CCCC[C@@H]1C(N)=O)NC(=O)[C@H]1CCCC[C@@H]1NC(=O)[C@H]1CCCC[C@@H]1NC(=O)C[C@H](Cc1ccc(O)cc1)NC(=O)[C@H]1CCCC[C@@H]1N recordedmeasurement=3.48
chemicalsmiles=NC(=O)[C@H]1CCCC[C@@H]1NC(=O)C[C@H](Cc1c[nH]c2ccccc12)NC(=O)[C@H]1CCCC[C@@H]1NC(=O)[C@H]1CCCC[C@@H]1NC(=O)C[C@H](CC(=O)O)NC(=O)[C@H]1CCCC[C@@H]1N recordedmeasurement=3.78
chemicalsmiles=NC(=O)[C@H]1CCCC[C@@H]1NC(=O)C[C@H](Cc1ccccc1)NC(=O)[C@H]1CCCC[C@@H]1NC(=O)[C@H]1CCCC[C@@H]1NC(=O)C[C@H](Cc1ccc(O)cc1)NC(=O)[C@H]1CCCC[C@@H]1N recordedmeasurement=4.08

* * *

assayTarget: Gal-1 (Homo sapiens, UniProt P09382)
Construct: made in house; host or cells: E. coli BL21(DE3)
Sequence (P09382 whole entry): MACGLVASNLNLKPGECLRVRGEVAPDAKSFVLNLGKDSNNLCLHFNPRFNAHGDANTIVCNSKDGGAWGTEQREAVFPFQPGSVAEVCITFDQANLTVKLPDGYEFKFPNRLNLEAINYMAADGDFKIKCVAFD
experimentalDetails: Pull-down assay with immobilized protein and LSM libraries
Assay type: binding
conditionDescription: H14 library; 1:1 binding assumed; read-out: Surface mapping KD (apparent)
Kd less than 300 µM is fulfilled; Kd greater than or equal to 300 µM is not fulfilled.

chemicalsmiles=CC(C)C[C@@H](CC(=O)N[C@H]1CCCC[C@@H]1C(=O)N[C@H]1CCCC[C@@H]1C(=O)N[C@H](CC(=O)N[C@H]1CCCC[C@@H]1C(N)=O)[C@@H](C)O)NC(=O)[C@H]1CCCC[C@@H]1N assaytarget="Gal-1 (Homo sapiens, UniProt P09382)" answerlabel="not fulfilled"
chemicalsmiles=CC(C)C[C@@H](CC(=O)N[C@H]1CCCC[C@@H]1C(=O)N[C@H]1CCCC[C@@H]1C(=O)N[C@@H](CCC(=O)O)CC(=O)N[C@H]1CCCC[C@@H]1C(N)=O)NC(=O)[C@H]1CCCC[C@@H]1N assaytarget="Gal-1 (Homo sapiens, UniProt P09382)" answerlabel="not fulfilled"
chemicalsmiles=NC(=O)[C@H]1CCCC[C@@H]1NC(=O)C[C@H](CO)NC(=O)[C@H]1CCCC[C@@H]1NC(=O)[C@H]1CCCC[C@@H]1NC(=O)C[C@H](Cc1c[nH]c2ccccc12)NC(=O)[C@H]1CCCC[C@@H]1N assaytarget="Gal-1 (Homo sapiens, UniProt P09382)" answerlabel="not fulfilled"
chemicalsmiles=C[C@@H](O)[C@@H](CC(=O)N[C@H]1CCCC[C@@H]1C(=O)N[C@H]1CCCC[C@@H]1C(=O)N[C@@H](CCCNC(=N)N)CC(=O)N[C@H]1CCCC[C@@H]1C(N)=O)NC(=O)[C@H]1CCCC[C@@H]1N assaytarget="Gal-1 (Homo sapiens, UniProt P09382)" answerlabel="not fulfilled"
chemicalsmiles=CC(C)C[C@@H](CC(=O)N[C@H]1CCCC[C@@H]1C(=O)N[C@H]1CCCC[C@@H]1C(=O)N[C@@H](CCCNC(=N)N)CC(=O)N[C@H]1CCCC[C@@H]1C(N)=O)NC(=O)[C@H]1CCCC[C@@H]1N assaytarget="Gal-1 (Homo sapiens, UniProt P09382)" answerlabel=fulfilled
chemicalsmiles=NC(=O)CC[C@@H](CC(=O)N[C@H]1CCCC[C@@H]1C(N)=O)NC(=O)[C@H]1CCCC[C@@H]1NC(=O)[C@H]1CCCC[C@@H]1NC(=O)C[C@H](CC(N)=O)NC(=O)[C@H]1CCCC[C@@H]1N assaytarget="Gal-1 (Homo sapiens, UniProt P09382)" answerlabel=fulfilled
chemicalsmiles=N=C(N)NCCC[C@@H](CC(=O)N[C@H]1CCCC[C@@H]1C(N)=O)NC(=O)[C@H]1CCCC[C@@H]1NC(=O)[C@H]1CCCC[C@@H]1NC(=O)C[C@H](Cc1c[nH]c2ccccc12)NC(=O)[C@H]1CCCC[C@@H]1N assaytarget="Gal-1 (Homo sapiens, UniProt P09382)" answerlabel=fulfilled
chemicalsmiles=C[C@@H](CC(=O)N[C@H]1CCCC[C@@H]1C(=O)N[C@H]1CCCC[C@@H]1C(=O)N[C@H](CC(=O)N[C@H]1CCCC[C@@H]1C(N)=O)Cc1ccccc1)NC(=O)[C@H]1CCCC[C@@H]1N assaytarget="Gal-1 (Homo sapiens, UniProt P09382)" answerlabel=fulfilled
chemicalsmiles=CC[C@H](C)[C@@H](CC(=O)N[C@H]1CCCC[C@@H]1C(=O)N[C@H]1CCCC[C@@H]1C(=O)N[C@@H](CO)CC(=O)N[C@H]1CCCC[C@@H]1C(N)=O)NC(=O)[C@H]1CCCC[C@@H]1N assaytarget="Gal-1 (Homo sapiens, UniProt P09382)" answerlabel=fulfilled
